Cited source for all entries: patent US12209079B2

Catalogue of molecules with associated remaining activity at 10 µM
biological target: IDO in A431 cells (Homo sapiens); construct: endogenous in cells; host or cells: A431 cells, IFN-γ stimulated; experiment: IDO cell-based assay, kynurenine production in IFN-γ stimulated A431 cells; settings: A-431, 24 h; final concentration of the compound 10 μM; rate relative to culture without compound
Sequence (P14902 whole entry): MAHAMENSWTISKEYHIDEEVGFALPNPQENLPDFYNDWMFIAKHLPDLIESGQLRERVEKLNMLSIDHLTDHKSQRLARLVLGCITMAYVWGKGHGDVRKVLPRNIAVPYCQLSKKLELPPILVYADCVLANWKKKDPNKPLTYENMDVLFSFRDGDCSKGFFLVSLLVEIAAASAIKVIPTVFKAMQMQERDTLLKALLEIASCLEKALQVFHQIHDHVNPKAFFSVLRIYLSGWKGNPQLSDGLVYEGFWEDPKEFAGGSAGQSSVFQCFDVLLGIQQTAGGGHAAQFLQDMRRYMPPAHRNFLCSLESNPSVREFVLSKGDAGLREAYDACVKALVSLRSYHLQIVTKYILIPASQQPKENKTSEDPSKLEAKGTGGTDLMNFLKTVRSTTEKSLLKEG
Counter-ions that a name gives are not always drawn.
measured-attribute: remaining activity at 10 µM (%)

INSERT INTO results (molecule, measured_attribute, display_unit, val) VALUES
  ('Cc1ccc(CNC(=O)c2ccc(Br)cc2CS/C(N)=N/c2ccc(F)c(Cl)c2)cc1 [Compound 91, hydrobromide]', 'remaining activity at 10 µM', '%', 51),
  ('c1ccc(CSC2=NCN(CC3CCCCC3)CN2)c(CSC2=NCN(CC3CCCCC3)CN2)c1', 'remaining activity at 10 µM', '%', 10),
  ('Cc1ccc(CSC(=N)N)c(CSC(=N)N)c1 [Compound 12, dihydrobromide]', 'remaining activity at 10 µM', '%', 13),
  ('N#Cc1ccc(CNC(=O)c2ccc(Br)cc2C[Se]C(=N)N)cc1 [Compound 113, hydrobromide]', 'remaining activity at 10 µM', '%', 73),
  ('Cc1ccc(C)c(CN2CN=C(SCc3ccccc3CSC3=NCN(Cc4cc(C)ccc4C)CN3)NC2)c1', 'remaining activity at 10 µM', '%', 11),
  ('Fc1ccc(CSC2=NCN(CCc3ccc(C(F)(F)F)cc3)CN2)c(CSC2=NCN(CCc3ccc(C(F)(F)F)cc3)CN2)c1', 'remaining activity at 10 µM', '%', 15),
  ('Fc1ccc(CSC2=NCN(CCc3ccc(Cl)c(Cl)c3)CN2)c(CSC2=NCN(CCc3ccc(Cl)c(Cl)c3)CN2)c1', 'remaining activity at 10 µM', '%', 13),
  ('FC(F)(F)c1ccc(CCN2CN=C(SCc3ccc(Br)cc3CSC3=NCN(CCc4ccc(C(F)(F)F)cc4)CN3)NC2)cc1', 'remaining activity at 10 µM', '%', 5),
  ('Brc1ccc(CSC2=NCN(CCC3CCCCC3)CN2)c(CSC2=NCN(CCC3CCCCC3)CN2)c1', 'remaining activity at 10 µM', '%', 1),
  ('COc1cccc(CNC(=O)c2ccc(Br)cc2C[Se]C(=N)N)c1 [Compound 106, hydrobromide]', 'remaining activity at 10 µM', '%', 64),
  ('N=C(N)SCc1c(F)c(F)c(F)c(F)c1CSC(=N)N [Compound 6, dihydrobromide]', 'remaining activity at 10 µM', '%', 75),
  ('COC(=O)c1c(CSC(=N)N)[nH]c2ccccc12 [Compound 32, hydrobromide]', 'remaining activity at 10 µM', '%', 54),
  ('N/C(=N\c1ccc(F)cc1)SCc1cc(Cl)c(Cl)cc1CS/C(N)=N/c1ccc(F)cc1 [Compound 137, dihydrobromide]', 'remaining activity at 10 µM', '%', 8),
  ('FC(F)(F)c1ccc(CN2CN=C(SCc3ccccc3CSC3=NCN(Cc4ccc(C(F)(F)F)cc4)CN3)NC2)cc1', 'remaining activity at 10 µM', '%', 6),
  ('FC(F)(F)c1ccc(CSC2=NCN(CCc3ccccc3Cl)CN2)c(CSC2=NCN(CCc3ccccc3Cl)CN2)c1', 'remaining activity at 10 µM', '%', 63);

* * *

target: rhIDO (recombinant human IDO) (Homo sapiens, UniProt P14902); assay: Enzyme assay using rhIDO (rate of kynurenine production); assay type: biochemical; conditions: 2 h; final concentration of the compound 10 μM; rate relative to reaction without compound; read-out: rhIDO-mediated kynurenine production
Sequence (P14902 whole entry): as above
Counter-ions that a name gives are not always drawn.
Attribute: remaining activity at 10 µM
measured-attribute: remaining activity at 10 µM (%)

INSERT INTO assay_data (molecule, measured_attribute, display_unit, val) VALUES
  ('N=C(N)SCc1cc(Br)ccc1C(=O)NCc1ccc(Cl)cc1Cl [Compound 89, hydrobromide]', 'remaining activity at 10 µM', '%', 81),
  ('COc1ccc(/N=C(\N)SCc2ccc(F)cc2CS/C(N)=N/c2ccc(OC)cc2)cc1 [Compound 128, dihydrobromide]', 'remaining activity at 10 µM', '%', 3),
  ('Clc1ccccc1CCN1CN=C(SCc2ccccc2CSC2=NCN(CCc3ccccc3Cl)CN2)NC1', 'remaining activity at 10 µM', '%', 40),
  ('N=C(N)SCc1cc(Br)ccc1C(=O)NCc1ccc(Cl)cc1 [Compound 82, hydrobromide]', 'remaining activity at 10 µM', '%', 89),
  ('Brc1ccc(CCN2CN=C(SCc3ccccc3CSC3=NCN(CCc4ccc(Br)cc4)CN3)NC2)cc1', 'remaining activity at 10 µM', '%', 27),
  ('CNC(=O)Cc1ccccc1CSC(=N)N [Compound 62, hydrobromide]', 'remaining activity at 10 µM', '%', 58),
  ('COc1cccc(CNC(=O)c2ccc(Br)cc2C[Se]C(=N)N)c1 [Compound 106, hydrobromide]', 'remaining activity at 10 µM', '%', 90),
  ('Br.Br.N=C(N)SCc1ccc(Cl)cc1CSC(=N)N [Compound 7, dihydrobromide]', 'remaining activity at 10 µM', '%', 10),
  ('Fc1ccc(CSC2=NCN(CCc3ccc(C(F)(F)F)cc3)CN2)c(CSC2=NCN(CCc3ccc(C(F)(F)F)cc3)CN2)c1', 'remaining activity at 10 µM', '%', 34),
  ('N=C(N)SCc1ccc(C(F)(F)F)cc1CSC(=N)N [Compound 46, dihydrobromide]', 'remaining activity at 10 µM', '%', 3),
  ('N/C(=N\c1ccc(Br)cc1)SCc1cc(Cl)c(Cl)cc1CS/C(N)=N/c1ccc(Br)cc1 [Compound 135, dihydrobromide]', 'remaining activity at 10 µM', '%', -2),
  ('Clc1cc(CSC2=NCN(CCC3CCCCC3)CN2)c(CSC2=NCN(CCC3CCCCC3)CN2)cc1Cl', 'remaining activity at 10 µM', '%', 7),
  ('Brc1ccc(CS/C(=N/C2CCCCC2)NC2CCCCC2)c(CS/C(=N/C2CCCCC2)NC2CCCCC2)c1 [Compound 57, dihydrobromide]', 'remaining activity at 10 µM', '%', 83),
  ('O=C1CC(=O)NC(SCc2ccccc2CSC2=NC(=O)CC(=O)N2)=N1', 'remaining activity at 10 µM', '%', 141),
  ('N#Cc1ccc(CNC(=O)c2ccccc2C[Se]C(=N)N)cc1 [Compound 104, hydrobromide]', 'remaining activity at 10 µM', '%', 78),
  ('COc1ccc(CSC(=N)N)c(CSC(=N)N)c1 [Compound 35, dihydrobromide]', 'remaining activity at 10 µM', '%', 24),
  ('Fc1ccc(CSC2=NCN(CCc3ccc(Cl)c(Cl)c3)CN2)c(CSC2=NCN(CCc3ccc(Cl)c(Cl)c3)CN2)c1', 'remaining activity at 10 µM', '%', 1),
  ('N=C(N)SCc1ccc2ccccc2c1CSC(=N)N [Compound 3, dihydrobromide]', 'remaining activity at 10 µM', '%', 6),
  ('CNC(=O)c1ncccc1CSC(=N)N [Compound 98, hydrobromide]', 'remaining activity at 10 µM', '%', 95),
  ('N=C(N)[Se]Cc1cc(Br)ccc1C(=O)NCC1CC1 [Compound 107, hydrobromide]', 'remaining activity at 10 µM', '%', 97),
  ('FC(F)(F)c1ccc(CCN2CN=C(SCc3cc(Cl)c(Cl)cc3CSC3=NCN(CCc4ccc(C(F)(F)F)cc4)CN3)NC2)cc1', 'remaining activity at 10 µM', '%', 17),
  ('N=C(N)SCc1cc(Br)ccc1C(=O)NCC1CC1 [Compound 93, hydrobromide]', 'remaining activity at 10 µM', '%', 103),
  ('N=C(N)SCc1ccccc1CC(=O)NCC1CCCCC1 [Compound 65, hydrobromide]', 'remaining activity at 10 µM', '%', 89),
  ('Br.Br.N/C(=N\c1ccc(F)cc1F)SCc1ccccc1CS/C(N)=N/c1ccc(F)cc1F', 'remaining activity at 10 µM', '%', 3),
  ('N#Cc1ccc(CNC(=O)c2ccc(Br)cc2CS/C(N)=N/c2ccc(Br)cc2)cc1 [Compound 87, hydrobromide]', 'remaining activity at 10 µM', '%', 75),
  ('c1ccc(CS/C(=N/C2CCCCC2)NC2CCCCC2)c(CS/C(=N/C2CCCCC2)NC2CCCCC2)c1 [Compound 58, dihydrobromide]', 'remaining activity at 10 µM', '%', 73),
  ('COc1ccc(CN2CN=C(SCc3ccccc3CSC3=NCN(Cc4ccc(OC)cc4OC)CN3)NC2)c(OC)c1', 'remaining activity at 10 µM', '%', 33),
  ('FC(F)(F)c1cccc(CCN2CN=C(SCc3ccc(Br)cc3CSC3=NCN(CCc4cccc(C(F)(F)F)c4)CN3)NC2)c1', 'remaining activity at 10 µM', '%', 8),
  ('N=C(N)SCc1cc(Br)ccc1C(=O)NCc1ccc(F)cc1 [Compound 86, hydrobromide]', 'remaining activity at 10 µM', '%', 92),
  ('c1ccc(CSC2=NCN(CC3CCCCC3)CN2)c(CSC2=NCN(CC3CCCCC3)CN2)c1', 'remaining activity at 10 µM', '%', 23),
  ('Cl.Cl.N=C(N)SCc1ccccc1CSC(=N)N [Compound 1, dihydrochloride]', 'remaining activity at 10 µM', '%', 26);
